Molecular target: T1, human IgG1 (human, UniProt P01857-1 1-330 = IgG part)
T1 construct: Calbiochem; human plasma IgG1 in anisotropy studies, myeloma-derived (cat. 400120) in batch/column studies; also called hIgG1
T1 sequence (P01857 other isoform, or with tags, fused parts or gaps): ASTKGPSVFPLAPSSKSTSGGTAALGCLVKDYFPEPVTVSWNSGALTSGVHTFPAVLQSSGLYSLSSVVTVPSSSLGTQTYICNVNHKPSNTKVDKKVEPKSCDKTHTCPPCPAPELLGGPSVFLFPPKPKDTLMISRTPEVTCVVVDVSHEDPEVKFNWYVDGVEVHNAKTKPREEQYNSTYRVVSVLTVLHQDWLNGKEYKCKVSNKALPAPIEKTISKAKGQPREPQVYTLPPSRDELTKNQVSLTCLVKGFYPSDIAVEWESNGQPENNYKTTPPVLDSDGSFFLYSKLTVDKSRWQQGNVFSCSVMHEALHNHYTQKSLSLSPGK
Test: fluorescence anisotropy; pH 5.7, 0.1 M NaCl
pKd: −log10 of the molar value. Positions of bridges follow the written chain, without caps; N, C: chain ends.
Quantity Measured: pKd

INSERT INTO assay_data (binder, observed_result) VALUES
  ('Ac-GDDHMCVYTTWGELIWCDNHEPGPEGGGK-NH2 (disulfide 6-17 (inferred), Synthetic disulfide-cyclised peptide) [DX249]', 6.01);
